# System: houseflies
# method: whole plant or invertebrate
# runConditions: Musca domestica, 72 h, read-out: Death of flies, % after 72 hours
measurementKind: mortality at 2 %

> print(dat)
                                   compound   measurementkind  measured
1  CCOP(=O)(O)NC(CCl)C(O)c1ccc([N+](=O)[O-])cc1 (stereo not drawn)  mortality at 2 %       94%
2  CCOP(=O)(O)NC(CO)C(O)c1ccc([N+](=O)[O-])cc1 (stereo not drawn)  mortality at 2 %     92.3%
3  O=[N+]([O-])c1ccc(C(Cl)C(CCl)NP(=O)(O)Oc2ccccc2)cc1 (stereo not drawn)  mortality at 2 %     91.2%
4  CCOP(=O)(O)NC(CCl)C(Cl)c1ccc([N+](=O)[O-])cc1 (stereo not drawn)  mortality at 2 %     91.3%
5                      O=S(=O)(NCl)c1ccccc1  mortality at 2 %       84%
6  O=[N+]([O-])c1ccc(C(O)C(CCl)NP(=O)(O)Oc2ccccc2)cc1 (stereo not drawn)  mortality at 2 %       99%

###

# Test system: houseflies
# method: whole plant or invertebrate
# runConditions: Musca domestica, 24 h, read-out: Death of flies, % after 24 hours
Define the label as 1.0 when mortality at 3 % is strictly less than 60% and as 0.0 in all remaining cases.

> print(dat)
                                   molecule  label
1  O=[N+]([O-])c1ccc(C(Cl)C(CCl)NP(=O)(Nc2ccccc2)Nc2ccccc2)cc1 (stereo not shown)    0.0
2  O=[N+]([O-])c1ccc(C(O)C(CCl)NP(=O)(Oc2ccccc2)Oc2ccccc2)cc1 (stereo not shown)    1.0
3  O=[N+]([O-])c1ccc(C(O)C(CCl)NP(=O)(Nc2ccccc2)Nc2ccccc2)cc1 (stereo not shown)    1.0
4                      O=S(=O)(NCl)c1ccccc1    0.0
5  O=[N+]([O-])c1ccc(C(Cl)C(CCl)NP(=O)(Oc2ccccc2)Oc2ccccc2)cc1 (stereo not shown)    0.0
6  O=[N+]([O-])c1ccc(C(Cl)C(CCl)NP(=O)(O)Nc2ccccc2)cc1 (stereo not shown)    0.0
7  O=[N+]([O-])c1ccc(C(O)C(CCl)NP(=O)(O)Nc2ccccc2)cc1 (stereo not shown)    0.0

###

# Test system: virus of influenza, type A, (H1N1)
# method: microbe, parasite or virus in culture
# runConditions: H1N1, read-out: Virucidal activity of the preparation in respect of the virus of influenza, type A, %
Define the label as TRUE when killing at 2 % is strictly less than 80% and as FALSE in all remaining cases.

> print(dat)
                                   compound  label
1  CCOP(=O)(O)NC(CCl)C(Cl)c1ccc([N+](=O)[O-])cc1 (stereo not drawn)   TRUE
2  CCOP(=O)(O)NC(CO)C(O)c1ccc([N+](=O)[O-])cc1 (stereo not drawn)  FALSE
3  O=[N+]([O-])c1ccc(C(O)C(CCl)NP(=O)(O)Oc2ccccc2)cc1 (stereo not drawn)  FALSE
4  O=S(=O)(NCl)c1ccccc1 [Known bactericidal preparation, Sodium N-Chlorobenzenesulphamide, reference compound]   TRUE
5  O=[N+]([O-])c1ccc(C(Cl)C(CCl)NP(=O)(O)Oc2ccccc2)cc1 (stereo not drawn)  FALSE
